# System: azathioprine-sensitive, rosette-forming cells
# assay_summary: mouse E-rosette procedure (restoration of azathioprine-sensitive rosette-forming cells in adult thymectomized mice)
# Type: in vivo, mouse (CD-1
# assay_context: oral dosage of 1 mg./kg.; thymectomized mice
% Rosetting Cells values by entry
Give your result in % as a bare value.

Observe how each entry below is paired with its result.
{"molecule": "CC(SCc1ccncc1)C(O)c1ccccc1 (centres unmarked)", "% Rosetting Cells / %": 33}
{"molecule": "CC(O)CSCc1ccncc1 (centres unmarked) [drawing 21]", "% Rosetting Cells / %": 56}
{"molecule": "Oc1ccccc1SCc1ccncc1", "% Rosetting Cells / %": 59}
{"molecule": "CC(O)C(C)SCc1ccncc1 (centres unmarked)", "% Rosetting Cells / %": 63}
{"molecule": "OCC(O)CSCc1ccncc1 (centres unmarked) [drawing 17]", "% Rosetting Cells / %": 57}
{"molecule": "COc1ccc(C(O)CSCc2ccncc2)cc1 (centres unmarked)", "% Rosetting Cells / %": 43}
{"molecule": "CC(=O)OCCSCc1ccncc1 [CH2 CH2, drawing 27, 1, 4-(2-Acetoxyethylthiomethyl)pyridine]", "% Rosetting Cells / %": 40}
{"molecule": "OCCCSCc1ccncc1 [CH2 CH2 CH2, H, 1, 4-(3-Hydroxypropylthiomethyl)pyridine]", "% Rosetting Cells / %": 36}

Prompt: Look up % Rosetting Cells: CC(CO)SCc1ccncc1 (centres unmarked) [drawing 19]
Response: 40

Prompt: Give the measured % Rosetting Cells of "CC(C)(O)CSCc1ccncc1" .
Response: 39

Prompt: If you can, please state the reported % Rosetting Cells value of COCCSCc1ccncc1 [CH2 CH2, CH3, 1, 4-(2-Methoxyethylthiomethyl)pyridine] .
Response: 33

Prompt: Item under review: O=[N+]([O-])c1ccc(C(O)CSCc2ccncc2)cc1 (centres unmarked) . Reported % Rosetting Cells?
Response: 40

Prompt: Look up % Rosetting Cells: OCC(SCc1ccncc1)c1ccccc1 (centres unmarked)
Response: 33

Prompt: % Rosetting Cells lookup needed for OCCSCCc1ccncc1 [CH2 CH2, H, 2, 4-[2-(2-Hydroxyethylthio)ethyl]pyridine] , thanks.
Response: 50
